I'd appreciate it if you could supply pIC50 values for the items below.
# study-system: Full-length human PIM-2 (Homo sapiens, UniProt Q9P1W9)
# Construct: Full-length human PIM-2 was expressed and purified; made in house
# Sequence (Q9P1W9 whole entry): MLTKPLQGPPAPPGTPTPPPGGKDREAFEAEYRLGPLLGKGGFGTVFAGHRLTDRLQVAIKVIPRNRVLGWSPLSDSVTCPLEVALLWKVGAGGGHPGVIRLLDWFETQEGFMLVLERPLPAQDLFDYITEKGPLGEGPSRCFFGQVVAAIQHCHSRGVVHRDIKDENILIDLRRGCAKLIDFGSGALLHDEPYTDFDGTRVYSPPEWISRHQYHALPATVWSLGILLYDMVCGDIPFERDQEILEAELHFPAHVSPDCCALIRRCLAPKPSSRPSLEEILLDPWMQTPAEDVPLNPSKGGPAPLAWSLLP
# assay-info: PIM-2 kinase inhibition assay: Dowex technique
# Type: biochemical
# condition-parameters: ATP 4 μM, enzyme 1.5 nM, Aktide 5 μM
A value of pIC50 is the negative decimal logarithm of a concentration given in moles per litre.

Requested read-out: pIC50. Entry: CSc1ncc2ccc3c(C(N)=O)nn(C(C)CCN)c3c2n1 (stereo not shown)
9.00

So what's the measured pIC50 for this one? `CSc1ncc2ccc3c(C(N)=O)nn(C(C)(C)C)c3c2n1`
8.70

Param item = `CSc1ncc2ccc3c(C(N)=O)nn(C4CCOCC4)c3c2n1` ; retrieve measured pIC50.
7.46

Data request, read-out pIC50, for `CNC(=O)c1nn(C(C)(C)C)c2c1ccc1cnc(SC)nc12`
6.81

Tell me the measured pIC50 of `CSc1ncc2ccc3c(C(N)=O)nn([C@H]4C[C@@H](CO)C4)c3c2n1` , please.
7.89

Please report the recorded pIC50 for `COc1ncc2ccc3c(C(N)=O)nn(C4CCNCC4)c3c2n1` .
6.57

Sample CSc1ncc2ccc3c(C(N)=O)nn(C4CCC(N)CC4)c3c2n1 (stereo not shown) — what was its pIC50?
9.00

# get_value(readout='pIC50', item= CSc1ncc2ccc3c(C(N)=O)nn(C4CCCNC4)c3c2n1 (stereo not shown) )
7.68

Report pIC50 for `CSc1ncc2ccc3c(C(N)=O)nn(C4CCNCC4)c3c2n1` please.
7.34

Fill in the blank: the reported pIC50 of `CC(=O)c1cc(N2CCNCC2)ccc1Oc1ncc2ccc3c(C(N)=O)nn(C)c3c2n1` is ____.
6.28

State the recorded pIC50 for this entry: `CSc1ncc2ccc3c(C(N)=O)nn([C@H]4C[C@H](CO)C4)c3c2n1`
7.85

// pIC50 lookup, key: CSc1ncc2ccc3c(C(N)=O)nn(CC4CCCNC4)c3c2n1 (stereo not shown)
6.51

For `CSc1ncc2ccc3c(C(N)=O)nn(CC4CCNCC4)c3c2n1` , what is its reported pIC50?
6.80

----------
Entries below carry reported IC50 on Full-length human PIM-1 (Homo sapiens, UniProt P11309).
Sequence (P11309 whole entry): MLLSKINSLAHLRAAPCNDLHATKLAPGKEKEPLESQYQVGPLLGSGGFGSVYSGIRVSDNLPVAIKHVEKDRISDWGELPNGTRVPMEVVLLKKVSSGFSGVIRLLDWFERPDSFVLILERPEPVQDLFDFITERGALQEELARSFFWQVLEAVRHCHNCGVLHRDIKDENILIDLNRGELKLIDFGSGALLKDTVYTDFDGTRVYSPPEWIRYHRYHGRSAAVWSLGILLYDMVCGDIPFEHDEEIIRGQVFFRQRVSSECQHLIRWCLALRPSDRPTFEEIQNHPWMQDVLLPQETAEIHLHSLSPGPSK

What is its IC50 for Full-length human PIM-1 (Homo sapiens, UniProt P11309)? Entry: `CSc1ncc2ccc3c(C(N)=O)nn(CC4CCNCC4)c3c2n1`
0.009 µM

Identify the measured IC50 of `CC(=O)c1cc(N2CCN(C)CC2)ccc1Oc1ncc2ccc3c(C(N)=O)nn(C)c3c2n1` for Full-length human PIM-1 (Homo sapiens, UniProt P11309).
4.12 µM

# value lookup — system Full-length human PIM-1 (Homo sapiens, UniProt P11309), readout IC50, item `CN1CCN(c2ccc(Oc3ncc4ccc5c(C(N)=O)nn(CCO)c5c4n3)cc2)CC1`
0.081 µM

Form field: IC50 recorded for CSc1ncc2ccc3c(C(N)=O)nn(CC4CCCNC4)c3c2n1 (centres unmarked) with Full-length human PIM-1 (Homo sapiens, UniProt P11309) (enter value)
0.08 µM

Observed IC50 on Full-length human PIM-1 (Homo sapiens, UniProt P11309) for `CSc1ncc2ccc3c(C(N)=O)nn([C@H]4C[C@H](CO)C4)c3c2n1` , please.
0.003 µM

Form: Entry = `CSc1ncc2ccc3c(C(N)=O)nn(CCO)c3c2n1` | System = Full-length human PIM-1 (Homo sapiens, UniProt P11309) | IC50 = ____
0.05 µM

Reported IC50 for Full-length human PIM-1 (Homo sapiens, UniProt P11309), given CSc1ncc2ccc3c(C(N)=O)nn(C4CN5CCC4CC5)c3c2n1 (centres unmarked) ?
0.015 µM

Under Full-length human PIM-1 (Homo sapiens, UniProt P11309): IC50 value of CSc1ncc2ccc3c(C(N)=O)nn(C4CCCNC4)c3c2n1 (centres unmarked) ?
0.022 µM

Form field - read-out: IC50; system: Full-length human PIM-1 (Homo sapiens, UniProt P11309); submitted item: `CSc1ncc2ccc3c(C(N)=O)nn(C(C)(C)C)c3c2n1`
0.001 µM

Request body: readout IC50, system Full-length human PIM-1 (Homo sapiens, UniProt P11309), query `Cn1nc(C(N)=O)c2ccc3cnc(Oc4ccc(N5CCNCC5)cc4)nc3c21` . Return the value.
0.004 µM

Form field: IC50 recorded for `CSc1ncc2ccc3c(C(N)=O)nn(CCN)c3c2n1` with Full-length human PIM-1 (Homo sapiens, UniProt P11309) (enter value)
0.143 µM

What value of IC50 on Full-length human PIM-1 (Homo sapiens, UniProt P11309) does NC(=O)c1nn(C2CCC(N)CC2)c2c1ccc1cnc(-c3ccccc3)nc12 (centres unmarked) have?
0.4 µM

Form entry - test system: Full-length human PIM-1 (Homo sapiens, UniProt P11309); read-out: IC50; molecule: CSc1ncc2ccc3c(C(N)=O)nn(C(C)CCN)c3c2n1 (centres unmarked)
0.001 µM

What IC50 appears in the records for this molecule with Full-length human PIM-1 (Homo sapiens, UniProt P11309)? `CSc1ncc2ccc3c(C(N)=O)nn(C4CCNCC4)c3c2n1`
0.019 µM

Look up IC50 with Full-length human PIM-1 (Homo sapiens, UniProt P11309) for this molecule: `CSc1ncc2ccc3c(C(N)=O)nn([C@H]4C[C@@H](CO)C4)c3c2n1`
0.003 µM

Given the entry `CSc1ncc2ccc3c(C(N)=O)nn([C@@H]4C[C@H]5CC[C@@H](C4)N5)c3c2n1` , what IC50 was observed with Full-length human PIM-1 (Homo sapiens, UniProt P11309)?
0.016 µM

Param readout= IC50; system= Full-length human PIM-1 (Homo sapiens, UniProt P11309); entry= `CSc1ncc2ccc3c(C(N)=O)nn(C4CCOCC4)c3c2n1` ; returns value.
0.014 µM

Value source: patent US8541576B2
